Numbers sourced from paper PMC12382740.

Test system: HeLa cells
Type: cell-based, human
measurement setup: 24 h
Ends that are not written are not given here.
Assign pIC50 to each entry below.
In plain terms, pIC50 is the concentration in mol/L turned into minus its base-10 logarithm.

Param item = H-GLRKRLRKFRNKIKEKLKKIGQKIQGLLPKL-OH [CAP-18_31] ; retrieve measured pIC50.
4.88

Item: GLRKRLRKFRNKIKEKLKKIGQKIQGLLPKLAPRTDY [CAP-18]
5.04

---

Test system: P. aeruginosa Strain ATCC 121110
Format: cell-based, Pseudomonas aeruginosa
measurement setup: ATCC 121110
Ends that are not written are not given here.
measurement type: MIC

What is its MIC for P. aeruginosa Strain ATCC 121110? Entry: H-FRNKIKEKLKKIGQKIQG-OH [CAP-18_18]
> 64 µg/mL

Now give it for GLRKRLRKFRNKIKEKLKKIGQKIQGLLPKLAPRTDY [CAP-18] too.
< 0.125 µg/mL

And the next one, H-GLRKRLRKFRNKIKEKLKKIG-OH [CAP-18_21] ?
32 µg/mL

Now try H-IKEKLKKIGQKIQGLLPKL-OH [CAP-18_19] .
> 64 µg/mL

# iterate: H-FRNKIKEKLKKIGQKIQGLLPKL-OH [CAP-18_23]
> 32 µg/mL

Next entry: H-IKEKLKKIGQKIQG-OH [CAP-18_14]
> 64 µg/mL

---

Tested on: P. aeruginosa Strain ATCC 121110
Format: cell-based, Pseudomonas aeruginosa
measurement setup: Strain ATCC 121110, value in brackets
Give MIC for every item shown.

MIC lookup needed for H-GLRKRLRKFRNKIKEKLKKIG-OH [CAP-18_21] , thanks.
12 µM

Can you check H-FRNKIKEKLKKIGQKIQG-OH [CAP-18_18] next?
> 30 µM

Same thing, different substance: H-GLRKRLRKFRNKIKEKLKKIGQKIQGLLPKL-OH [CAP-18_31]
0.1 µM

Same thing, different substance: H-FRNKIKEKLKKIGQKIQGLLPKL-OH [CAP-18_23]
> 12 µM

Same lookup for H-IKEKLKKIGQKIQGLLPKL-OH [CAP-18_19] , please.
> 29 µM

Lookup H-IKEKLKKIGQKIQG-OH [CAP-18_14]
> 40 µM
